Ref: PubChem BioAssay (NCATS)

# test_target: Mitogen-activated protein kinase 10 (Mus musculus) (UniProt Q61831)
# assay_name: JNK3 AlphaScreen Assay (AID 530);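 also: kinase came from lysate of stimulated human HepG2 cells; signal reports phosphorylation of biotinylated GST-cJun 1-79 at Ser73 with 10 µM ATP; % is scaled to controls: 0 for no effect and ±100 for the full control effect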
# run_conditions: JNK3 lysate, c-Jun phosphorylation; series mostly up to 11.4 µM
Inconclusive results are not listed. The source made the active and inactive calls. Calls follow the shape of the dose curve; as a rule, active = well fitted curve in either direction with a large enough effect (not every such curve was filed as active); inconclusive = small, poorly fitted or top-dose-only effect, or another doubt; inactive = flat fitted curve, though single readings scatter.
property_name: outcome

Solved cases below.
{"structure_as_smiles": "Oc1cccnc1CN1CCCCC1", "outcome": "inactive"}
{"structure_as_smiles": "N=C(N)SCCc1ccccn1", "outcome": "inactive"}
{"structure_as_smiles": "O=C(O)c1ccccc1-c1ccccc1C(=O)Nc1ccc2c(c1)[nH]c(=O)c1ccccc12", "outcome": "inactive"}
{"structure_as_smiles": "Cc1nc([N+](=O)[O-])cn1-c1nc2ccccn2c1[N+](=O)[O-]", "outcome": "inactive"}

Continue with the next compound.
Request: Need outcome, item COc1cc(Cl)c(CC(=O)c2c[nH]c3ccccc23)cc1OC
Result: inactive

* * *

# assay_name: Cell Viability - SK-N-SH (AID 435);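 also: potency is read from the fitted curve at half-maximal effect; compound exposure lasted 40 h at 37 °C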
# run_conditions: SK-N-SH neuroblastoma cell viability qHTS
# Excerpt: NIH Chemical Genomics Center [NCGC] NIH Molecular Libraries Screening Centers Network [MLSCN] National Institutes of Environmental Health Sciences [NIEHS] National Toxicology Program [NTP] We have developed a 1536-well cell-based assay for quantitative high throughput screening (qHTS) against a number of cell lines to determine in vitro cytotoxicity of small molecules. […] 8. Detection; Luminescence; Viewlux plate reader […]
Records with an inconclusive call do not appear. Calls of active or inactive are those of the source. The call rests on the fitted dose curve.
Respond with a class label; see 1 for active, 0 for inactive

Request: Please indicate how the test categorized Clc1nc2ccccc2nc1Cl .
Result: 0

Request: Also need C=C1CC[C@H](O)C/C1=C/C=C1\CCC[C@]2(C)[C@@H]([C@H](C)CCCC(C)C)CC[C@@H]12 , thanks.
Result: 1

Request: Also need Cc1cccnc1 , thanks.
Result: 0

Request: Also need Nc1ccc(N=Nc2ccccc2)c(N)c1 , thanks.
Result: 0

Request: Also need O=C(O)c1cc(N=Nc2ccc([N+](=O)[O-])cc2)ccc1O , thanks.
Result: 0

Request: Also need Cc1cc(=O)oc2cc(O)cc(O)c12 , thanks.
Result: 0

Request: Also need O=[N+]([O-])c1ccc(F)cc1F , thanks.
Result: 0

Request: Also need CC(=O)CC(=O)Nc1ccccc1 , thanks.
Result: 0

Request: Also need Nc1ccccc1O , thanks.
Result: 0

Request: Also need NC(=O)c1ccc([N+](=O)[O-])cc1 , thanks.
Result: 0

Request: Also need C=CC(=O)OCCCCCCOC(=O)C=C , thanks.
Result: 1

Request: Also need CC(C)S , thanks.
Result: 0

Request: Also need CC(/C=C/C=C(C)/C=C/C(=O)O)=C\C=C\C=C(C)\C=C\C=C(C)\C=C\C(=O)O , thanks.
Result: 0

Request: Also need CCCCC(CC)COCCCN (centres undefined) , thanks.
Result: 0

Request: Also need c1ccc2c(c1)ccc1ccccc12 , thanks.
Result: 0

Request: Also need c1ccc2ncccc2c1 , thanks.
Result: 0

Request: Also need NC(=O)Nc1nc2ccccc2[nH]1 , thanks.
Result: 0

Request: Also need OC1CCCCC1 , thanks.
Result: 0

Request: Also need CCNC(=S)NCC , thanks.
Result: 0

Request: Also need C[C@@H]1CC2(OC(O)[C@]3(C)O[C@H]23)O[C@H]2C[C@@]3(C)[C@@H]4CC[C@H]5C(C)(C)C(O[C@@H]6OC[C@@H](O)[C@H](O)[C@H]6O)CC[C@@]56C[C@@]46CC[C@]3(C)[C@@H]12 (some centres undefined) , thanks.
Result: 0

Request: Also need CC(C)OCC1CO1 (centres undefined) , thanks.
Result: 0

Request: Also need O=[N+]([O-])c1cccc(I)c1 , thanks.
Result: 0

Request: Also need c1ccc(CSCc2ccccc2)cc1 , thanks.
Result: 0

Request: Also need Cc1cc2nc(N)sc2cc1C , thanks.
Result: 0

Request: Also need O=Nc1ccc(Nc2ccccc2)cc1 , thanks.
Result: 1

Request: Also need C=Cc1cccc(C)c1 , thanks.
Result: 0

Request: Also need C=CC(C)(O)CCCC(C)CCCC(C)CCCC(C)C (centres undefined) , thanks.
Result: 0

Request: Also need Brc1cc(Oc2cc(Br)c(Br)c(Br)c2Br)c(Br)c(Br)c1Br , thanks.
Result: 0

Request: Also need O=c1[nH]ncc2ccccc12 , thanks.
Result: 0

Request: Also need Brc1cc(Br)c(Oc2cc(Br)c(Br)cc2Br)cc1Br , thanks.
Result: 0

Request: Also need CCN(CC)c1ccc2c(C)cc(=O)oc2c1 , thanks.
Result: 0

Request: Also need CCC(Cl)CC(Cl)C(Cl)C(Cl)C(Cl)C(C)Cl (centres undefined) , thanks.
Result: 0

Request: Also need COc1ccc([N+](=O)[O-])cc1N , thanks.
Result: 0

Request: Also need Cc1ccc(N)cc1[N+](=O)[O-] , thanks.
Result: 0

* * *

# test_target: Lysosomal acid glucosylceramidase (Homo sapiens)
# assay_name: Glucocerebrosidase-p2 (AID 348); also: potency is read from the fitted curve at half-maximal effect
# run_conditions: purified GBA, blue fluorogenic substrate, 40 min
Activity calls are given as the source filed them. Rule as the data show it: active = potency below about 10 µM; inactive = the rest.
property_name: Potency

Request: Need Potency, item O=c1[nH]c(SCc2c(Cl)c(Cl)c(Cl)c(Cl)c2Cl)nc(=S)[nH]1
Result: > 11.4 µM (inactive)

Request: Also need O=C(O)/C(=C\c1ccncc1)c1cccc2ccccc12 , thanks.
Result: > 11.4 µM (inactive)

Request: Also need c1ccc2c(c1)nnn2CN1CCOCC1 , thanks.
Result: > 11.4 µM (inactive)

* * *

# assay_name: Stat Signaling Pathway (AID 446);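 also: ME-180 cervical cancer cells given 40 pM IL-6 alongside compound; SIE-controlled beta-lactamase reporter measured as 460/530 nm FRET emission ratio; % is scaled to controls: 0 for no effect and ±100 for the full control effect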
# run_conditions: ME-180 (cervical carcinoma) SIE beta-lactamase reporter, IL-6 stimulated, 5 h; at 7.69 µM (top of the series) unless noted
# Protocol: NCGC Assay Overview: The IL-6/STAT signaling pathway was assayed in ME-180 cervical carcinoma cells by a beta-lactamase reporter gene controlled by a STAT Inducible Element (SIE). This reporter is induced by IL-6 at 40 pM AC50 and inhibited by the pan JAK inhibitor, 2-(1,1-Dimethylethyl)-9-fluoro-3,6-dihydro-7H-benz[h]-imidaz[4,5-f]isoquinolin-7-one, at approximately 10 nM AC50. Plated cells were incubated overnight and on the following day, stimulated with 40 pM IL-6 for 5 hrs. […]
Inconclusive results are not listed. Active and inactive are the calls of the source. Calls follow the shape of the dose curve; as a rule, active = well fitted curve in either direction with a large enough effect (not every such curve was filed as active); inconclusive = small, poorly fitted or top-dose-only effect, or another doubt; inactive = flat fitted curve, though single readings scatter.
property_name: activity, negative = inhibition

Request: Need activity, negative = inhibition, item O=C1c2cccc([N+](=O)[O-])c2C(=O)N1c1ncn[nH]1
Result: 4.03% (inactive)

Request: Also need O=C(O)c1ccccc1-c1ccccc1C(=O)c1ccccc1 , thanks.
Result: 2.8% (inactive)

Request: Also need CC1(C)[C@@H]2CC[C@@]1(CS(=O)(=O)Nc1ccccc1)C(=O)C2 , thanks.
Result: -7% (inactive)

Request: Also need N=C(N)SCCSC(=N)N , thanks.
Result: 12.3% (inactive)

Request: Also need O=C(O)c1ccc2c(c1C(=O)O)C(=O)OC2(c1ccc(O)cc1)c1ccc(O)cc1 , thanks.
Result: 1.84% (inactive)

Request: Also need CCN1/C(=C\C(C)=O)Sc2ccc(OC)cc21 , thanks.
Result: 2.84% [at 38 µM] (inactive)

Request: Also need CN(C)CCC(=O)[C@@]1(O)CC[C@H]2[C@H]3CC=C4C[C@@H](O)CC[C@]4(C)[C@H]3CC[C@]21C , thanks.
Result: -18.3% (inactive)

Request: Also need CC(CCC(=O)O)(c1ccc(O)cc1)c1ccc(O)cc1 , thanks.
Result: -4.62% (inactive)

Request: Also need Cc1ccnc(NS(=O)(=O)c2ccc(N=[N+]=[N-])cc2)n1 , thanks.
Result: 1.25% (inactive)

Request: Also need O=c1c(-c2ccc(F)cc2)nc2cnc(Oc3ccccc3)nc2n1C[C@H]1CCCO1 , thanks.
Result: -12.2% (inactive)

Request: Also need O=C(O)CCSc1ncnc2nc[nH]c12 , thanks.
Result: 0.335% (inactive)

Request: Also need COc1ccc([C@@H](C)c2cc3c(cc2O)OCO3)cc1 , thanks.
Result: 4.36% (inactive)

Request: Also need CCO[P@]1(=O)OC[C@@H]2O[C@H](n3cnc4c(N)ncnc43)[C@H](O)[C@@H]2O1 , thanks.
Result: -5.06% (inactive)

Request: Also need O=C(O)c1ccc(C(=O)O)c2c(C(=O)O)ccc(C(=O)O)c12 , thanks.
Result: -1.89% (inactive)

Request: Also need O=C(Nc1cccc(Cl)c1)Nn1cnnc1 , thanks.
Result: -6.44% (inactive)

Request: Also need CN(C(=O)c1ccncc1)c1ccccc1 , thanks.
Result: 0.69% (inactive)

Request: Also need c1ccc2cc(NCNc3ccc4ccccc4c3)ccc2c1 , thanks.
Result: -2.06% (inactive)

Request: Also need CN1CCc2[nH]nc(-c3n[nH]c4c3CN(C)CC4)c2C1 , thanks.
Result: 2.92% (inactive)

Request: Also need O=c1[nH]c(SCc2cccc([N+](=O)[O-])c2)nc2nc[nH]c12 , thanks.
Result: 8.09% (inactive)

Request: Also need O=C(O)[C@@H]1[C@@H](C(=O)Nc2ccccc2)[C@@H]2C=C[C@@H]1O2 , thanks.
Result: -5.22% (inactive)

Request: Also need CC(C)[C@@H]1OC(=O)C=CC=CC=CC=CC=CC[C@@H](O)[C@H](C)[C@@H](O)C[C@H](O)C[C@H](O)C[C@H](O)C[C@H](O)C[C@H](O)C[C@H](O)C=C[C@@H]1C , thanks.
Result: 8% (inactive)

Request: Also need O=C(O)[C@@H](Br)[C@@H](Br)c1ccccc1[N+](=O)[O-] , thanks.
Result: -0.793% (inactive)

Request: Also need COC(=O)[C@@H]1[C@@H]2C[C@H]3c4[nH]c5ccccc5c4CCN3C[C@@H]2CC[C@@H]1OS(=O)(=O)O , thanks.
Result: 12.7% (inactive)

Request: Also need C[N+](C)(N)Cc1nc(-c2ccc(Cl)cc2)no1 , thanks.
Result: 4.26% (inactive)

Request: Also need Cc1c(C)c(C)c(CC2(C)CSC2)c(CC2(C)CSC2)c1C , thanks.
Result: 6.86% (inactive)

Request: Also need Cc1cnc2cc(Cl)ccc2c1SCC(=O)O , thanks.
Result: -11.6% (inactive)

Request: Also need COc1cccc(CSCC(=O)O)c1 , thanks.
Result: 6.95% (inactive)

Request: Also need Nc1ccc(S(=O)(=O)c2ccc(NC(=O)c3cccnc3)cc2)cc1 , thanks.
Result: 8.7% (inactive)

Request: Also need C[C@]12CC[C@H]3c4ccc(O)cc4CC[C@@H]3[C@H]1CC[C@@H]2OP(=O)(O)O , thanks.
Result: 2.17% (inactive)

Request: Also need O=C(O)CC1(C(=O)O)CCCCC1 , thanks.
Result: 1.85% (inactive)

Request: Also need COC(=O)CCCC(=O)O , thanks.
Result: -4.13% (inactive)

Request: Also need O=C(O)c1ccccc1/C=N\N=C1c2ccccc2-c2ccccc21 , thanks.
Result: -13.9% (inactive)

Request: Also need Cc1ccc([C@@H](O)c2cnc(C)n2Cc2ccccc2)cc1 , thanks.
Result: -4.84% (inactive)

Request: Also need O=C(O)/C(=C\c1ccccc1)Cc1ccccc1 , thanks.
Result: 5.03% (inactive)

Request: Also need C[C@]1(O)CC[C@H]2[C@H]3CC=C4N5CCN=C5CC[C@@]4(C)[C@H]3CC[C@@]21C , thanks.
Result: -6.8% (inactive)

Request: Also need Cn1c(=O)c2c(ncn2CN2CCN(Cn3cnc4c3c(=O)n(C)c(=O)n4C)CC2)n(C)c1=O , thanks.
Result: 2.15% (inactive)

Request: Also need S[C@@H]1CCCN(Cc2ccccc2)C1 , thanks.
Result: 2.98% (inactive)

Request: Also need CCCC[C@]1(C2CCCC2)Cc2cc(OCC(=O)O)c(Cl)c(Cl)c2C1=O , thanks.
Result: -1.69% [at 38 µM] (inactive)

Request: Also need O=C(CSc1nc2ccccc2c2ccccc12)c1ccccc1 , thanks.
Result: -4.01% (inactive)

Request: Also need CSc1ccc(NC(=O)[C@H]2CCCC[C@@H]2C(=O)O)cc1 , thanks.
Result: 3.36% (inactive)
